Tested on: ATXN3 transcripts containing exon 4 (E4E5)
ASSAY_OVERVIEW: ATXN3 quantitative splicing assay (qPCR, SK-N-MC cells)
Assay type: cell-based
CONDITION_LABEL: Homo sapiens, 24 h treatment, qPCR E4E5 primers/probe, read-out: ATXN3 Potency - Splicing E4E5 IC50
PROPERTY: IC50

>>> result("Cc1c([C@H](C)[C@@H](C)N)sc2c(NCc3cccs3)cnnc12")
"10 to 40 µM"
>>> result("CCc1csc2c(NCc3cccs3)cnnc12")
"10 to 40 µM"
>>> result("Cc1c(C[C@H](C)N)sc2c(NCc3cccs3)cnnc12")
"0.501 to 5 µM"
>>> result("Cc1c(C[C@@H](N)CC(F)F)sc2c(NCc3cccs3)cnnc12")
"10 to 40 µM"
>>> result("Cc1c(CC2(N)COC2)sc2c(NCc3cccs3)cnnc12")
"10 to 40 µM"

Recorded IC50 for Cc1c(C[C@@H](N)C[S+](C)[O-])sc2c(NCc3ccco3)cnnc12 (stereo partly shown) , please?
10 to 40 µM

Recorded IC50 for Cc1csc2c(NCc3ccco3)cnnc12 , please?
10 to 40 µM

Recorded IC50 for Cc1c(C[C@@H](N)CO)sc2c(NCc3ccsc3)cnnc12 , please?
0.501 to 5 µM

====

Tested on: ATXN3 transcripts containing exon 4 (E4E5)
ASSAY_OVERVIEW: ATXN3 quantitative splicing assay (qPCR, SK-N-MC cells)
Type: cell-based
CONDITION_LABEL: Homo sapiens, 24 h treatment, qPCR E4E5 primers/probe, read-out: ATXN3 Potency - Splicing E4E5 IC50
PROPERTY: IC50

Solved cases (4 shown):
>>> result("Cc1nnc2c(C)csc2c1NCc1cccs1")
"10 to 40 µM"
>>> result("Cc1c(C[C@H](C)N)sc2c(NCn3cccc3)cnnc12")
"5 to 10 µM"
>>> result("Cc1c(C[C@H](C)N)sc2c(NCc3ccc(F)s3)cnnc12")
"0.501 to 5 µM"
>>> result("Cc1c(C[C@@H](N)CCOC(F)F)sc2c(NCc3cccs3)cnnc12")
"0.501 to 5 µM"

Recorded IC50 for Cc1c([C@@H](C)[C@H](C)N)sc2c(NCc3cccs3)cnnc12 , please?
10 to 40 µM

Recorded IC50 for Cc1c(C[C@@H](N)CO)sc2c(NCc3nccs3)cnnc12 , please?
10 to 40 µM

Recorded IC50 for C#Cc1c(C[C@H](C)N)sc2c(NCc3ccco3)cnnc12 , please?
1e-05 to 0.1 µM

Recorded IC50 for Cc1c(C[C@H](C)N)sc2c(NCc3cnco3)cnnc12 , please?
10 to 40 µM

Recorded IC50 for Cc1c(C(F)[C@H](C)N)sc2c(NCc3cccs3)cnnc12 (stereo partly shown) , please?
0.501 to 5 µM

Recorded IC50 for Cc1nnc2c(C)c(C[C@H](C)N)sc2c1NCc1cccs1 , please?
10 to 40 µM

Recorded IC50 for Cc1csc2c(NCc3cccs3)c(Br)nnc12 , please?
10 to 40 µM

Recorded IC50 for Cc1c(C[C@H]2CCN2)sc2c(NCc3cccs3)cnnc12 , please?
10 to 40 µM

Recorded IC50 for N[C@@H](CO)Cc1sc2c(NCc3cccs3)cnnc2c1Br , please?
0.101 to 0.5 µM

====

Measured pIC50 of individual entries
System: ATXN3 transcripts containing exon 4 (E4E5)
ASSAY_OVERVIEW: ATXN3 quantitative splicing assay (qPCR, SK-N-MC cells)
Assay type: cell-based
CONDITION_LABEL: Homo sapiens, 24 h treatment, qPCR E4E5 primers/probe, read-out: ATXN3 Potency - Splicing E4E5 IC50
pIC50: −log10 of the molar value.

Solved cases (6 shown):
>>> result("COc1csc(CNc2cnnc3c(C)c(C[C@H](C)N)sc23)c1")
"4.40 to 5.00"
>>> result("COC[C@H](N)Cc1sc2c(NCc3cccs3)cnnc2c1Br")
"6.30 to 7.00"
>>> result("Cc1c(CC(N)CF)sc2c(NCc3cccs3)cnnc12 (centres unmarked)")
"5.30 to 6.30"
>>> result("Cc1csc2c(NCc3nccs3)cnnc12")
"4.40 to 5.00"
>>> result("C[C@H](N)Cc1sc2c(NCc3cccs3)cnnc2c1O")
"4.40 to 5.00"
>>> result("Cc1c(C[C@H](C)N)sc2c(NC(=O)c3cccs3)cnnc12")
"4.40 to 5.00"

Recorded pIC50 for Cc1c(C[C@@H](N)COC(F)(F)F)sc2c(NCc3cccs3)cnnc12 , please?
4.40 to 5.00

Recorded pIC50 for N[C@@H](CO)Cc1sc2c(NCc3ccco3)cnnc2c1Br , please?
5.30 to 6.30

Recorded pIC50 for Cc1c(C(C)CO)sc2c(NCc3cccs3)cnnc12 (centres unmarked) , please?
4.40 to 5.00

Recorded pIC50 for Brc1csc2c(NCc3cccs3)cnnc12 , please?
4.40 to 5.00

Recorded pIC50 for N[C@@H](CO)Cc1cc2nncc(NCc3cccs3)c2s1 , please?
5.30 to 6.30

Recorded pIC50 for C[C@H](N)Cc1sc2c(NCc3ccco3)cnnc2c1Br , please?
6.30 to 7.00

Recorded pIC50 for Cc1c(CC2CNC2)sc2c(NCc3cccs3)cnnc12 , please?
4.40 to 5.00

Recorded pIC50 for C[C@H](N)Cc1sc2c(NCc3ccco3)cnnc2c1Cl , please?
6.30 to 7.00

Recorded pIC50 for Cc1c(C[C@@H](C)N)sc2c(NCc3cccs3)cnnc12 , please?
4.40 to 5.00

Recorded pIC50 for Cc1csc2c(NC(=O)c3cccs3)cnnc12 , please?
4.40 to 5.00

Recorded pIC50 for CC#Cc1c(C[C@H](C)N)sc2c(NCc3cccs3)cnnc12 , please?
6.30 to 7.00
